- Target Under Test: Kras and SOS1 (biotin-tagged human Kras loaded with GDP, His-tagged human SOS1) (Homo sapiens, UniProt P01116, G12D)
- Construct: made in house; host or cells: E. coli (stated for Kras only)
- Sequence (P01116 1-188 isoform P01116-2 G12D): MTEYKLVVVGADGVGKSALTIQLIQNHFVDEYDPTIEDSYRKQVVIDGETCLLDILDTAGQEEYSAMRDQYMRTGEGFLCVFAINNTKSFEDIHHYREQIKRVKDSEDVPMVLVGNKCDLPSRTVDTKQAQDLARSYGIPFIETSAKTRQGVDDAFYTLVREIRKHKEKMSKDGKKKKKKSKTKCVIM
- Assay Comment: Protein-protein interaction inhibition between Kras and SOS1 (KrasGl2D-SOS PPI) using AlphaScreen
- Format: binding
- Reported Conditions: AlphaScreen; biotin-tagged human Kras loaded with GDP, His-tagged human SOS1; read-out: KRAS G12D-SOS PPI IC50
- Procedure: Protein-Protein Interaction Inhibition Between Kras and SOS1 (KrasGl2D-SOS PPI) Using AlphaScreen Protein-protein interaction inhibition (PPI) between Kras and SOS1 was measured by energy transfer from nickel-conjugated donor beads to streptavidin-conjugated acceptor beads using biotin-tagged human Kras expressed in E. coli and loaded with GDP after purification and His-tagged human SOS1 enzyme. […]
Positions of bridges follow the written chain, without caps; N, C: chain ends. Non-standard residues stand in square brackets, D forms with d. Residues, ends and D or L forms follow the SMILES beside them. *: point of attachment. hPhe(3-Cl-4-CF3) = N[C@@H](CCc1ccc(C(F)(F)F)c(Cl)c1)C(=O)O; NMePhe(2-Cl) = CN[C@@H](Cc1ccccc1Cl)C(=O)O; NMeCha = CN[C@@H](CC1CCCCC1)C(=O)O; NMeD = CN[C@@H](CC(=O)O)C(=O)O; NMeL = CN[C@@H](CC(C)C)C(=O)O; NMeV = CN[C@H](C(=O)O)C(C)C; Trifluoroethyl = FC(F)(F)C*; d(β3hA) = C[C@@H](N)CC(=O)O; NMeS = CN[C@@H](CO)C(=O)O; Piperidide = C1CCN(*)CC1; Ac5c = NC1(C(=O)O)CCCC1; Sar = CNCC(=O)O
Measured Property: IC50 (µM)
Could you give me the number in µM? Just the number is fine.

# Molecule, Measured Property, Measurement
records = [
    ("CC[C@H](C)[C@@H]1NC(=O)[C@H](CC(C)C)N(C)C(=O)C[C@@H](C(=O)N2CCCCC2)N(C)C(=O)[C@H](COCC(F)(F)F)N(C)C(=O)C2(CCCC2)NC(=O)[C@@H]2CCCN2C(=O)[C@H](CCc2ccc(C(F)(F)F)c(Cl)c2)NC(=O)CN(C)C(=O)[C@H](CC2CCCCC2)N(C)C(=O)CN(C)C(=O)CN(C)C1=O [Compound 208] ([NMeL]I[Sar][Sar][NMeCha][Sar][hPhe(3-Cl-4-CF3)]P[Ac5c][NMeS](Trifluoroethyl)[NMeD]-Piperidide; lactam N-11)", "IC50", 0.12),
]

Consider the additional molecule presented here.
What measured IC50 goes with CC[C@H](C)[C@@H]1NC(=O)[C@H](CC(C)C)N(C)C(=O)C[C@@H](C)NC(=O)[C@H](C(C)C)N(C)C(=O)C2(CCCC2)NC(=O)[C@@H]2CCCN2C(=O)[C@H](CCc2ccc(C(F)(F)F)c(Cl)c2)NC(=O)CN(C)C(=O)[C@H](Cc2ccccc2Cl)N(C)C(=O)CN(C)C(=O)CN(C)C1=O [Compound 1591] (cyclo([Ac5c][NMeV][d(β3hA)][NMeL]I[Sar][Sar][NMePhe(2-Cl)][Sar][hPhe(3-Cl-4-CF3)]P)) ?
0.097
